Cited source: patent US20250368649A1

test system: A549 cells; experiment: Inhibition of KRas-mediated phosphorylation of ERK (Cisbio HTRF pERK), A549 cells; format: cell-based; conditions: Homo sapiens, A549, 3 h, 3 hr compound incubation, Cisbio pERK HTRF
MEASUREMENT_KIND: IC50 (nM)

Some solved cases for reference:
CCc1c(F)ccc2cc(O)cc(N3CCc4c(nc(OC[C@@]56CCCN5C[C@H](F)C6)nc4N4CCCn5nc(C(=O)N6CC7CNC(CO)C7C6)cc5C4)C3)c12 (stereo partly drawn) [Example 607] :: 722
CCc1c(F)ccc2cc(O)cc(N3CCc4c(nc(OC[C@@]56CCCN5C[C@H](F)C6)nc4N4CCCn5nc(C(=O)NCCOCCOC)cc5C4)C3)c12 [Example 374] :: 25
CCc1c(F)ccc2cc(O)cc(N3CCc4c(nc(OC[C@@]56CCCN5C[C@H](F)C6)nc4N4CCCn5nc(C(=O)N6C[C@@H](C)N[C@@H](C)C6)cc5C4)C3)c12 [Example 303] :: 35
CCc1c(C(=O)N(C)C)nn2c1CN(c1nc(OC[C@@]34CCCN3C[C@H](F)C4)nc3c1CCN(c1cc(O)cc4ccc(F)c(CC)c14)C3)CCC2 [Example 372] :: 10
CCc1c(F)ccc2cc(O)cc(N3CCc4c(nc(OC[C@@]56CCCN5C[C@H](F)C6)nc4N4C[C@@H]5C[C@H](C4)[C@H](O)C5)C3)c12 [Example 585B] :: 125
CCc1c(F)ccc2cc(O)cc(N3CCc4c(nc(OCC56CCCN5C/C(=C\F)C6)nc4N4C[C@@H]5C[C@H](C4)[C@H](O)C5)C3)c12 (stereo partly drawn) [Example 576] :: 61
CCc1c(F)ccc2cc(O)cc(N3CCc4c(nc(OC[C@@]56CCCN5C[C@H](F)C6)nc4N4CCCn5nc(C(=O)N6CC[C@@H]7CC[C@H]6C7)cc5C4)C3)c12 [Example 338] :: 21
CCc1c(F)ccc2cc(O)cc(N3CCc4c(nc(OC[C@]56CCCN5[C@H](COC(=O)N(C)C)CC6)nc4N4CCCn5nc(C(=O)N(C)C)cc5C4)C3)c12 [Example 586] :: 48

[1] CCc1c(F)ccc2cc(O)cc(N3CCc4c(nc(OC[C@@]56CCCN5C[C@H](F)C6)nc4N4CCCn5nc(C(=O)N6C[C@H](C)N[C@@H](C)C6)cc5C4)C3)c12 [Example 282]
[2] C=C1CN2CCCC2(COc2nc3c(c(N4CCC[C@@](C)(O)C4)n2)CCN(c2cc(O)cc4ccc(F)c(CC)c24)C3)C1 (stereo partly drawn) [Example 580]
Please tell me which of the two, 1 or 2 , has the higher reported IC50 value. In your reply, give the label of the chosen option.
1

[A] CCc1c(F)ccc2cc(O)cc(N3CCc4c(nc(OC[C@@]56CCCN5C[C@H](F)C6)nc4N4CCCn5nc(C(=O)N(C)C)c(OC)c5C4)C3)c12 [Example 370]
[B] C=C1CN2CC(=C)CC2(COc2nc3c(c(N4C[C@@H]5C[C@H](C4)[C@H](O)C5)n2)CCN(c2cc(O)cc4ccc(F)c(CC)c24)C3)C1 [Example 579]
Input pair: A , B . Output: entry with lower IC50. In your reply, give the label of the chosen option.
A
(A: 36 nM, B: 168 nM)

[I] CCc1c(F)ccc2cc(O)cc(N3CCc4c(nc(OCC56CCCN5C/C(=C\F)C6)nc4N4CCC[C@@](C)(O)C4)C3)c12 (stereo partly drawn) [Example 574]
[II] CCc1c(F)ccc2cc(O)cc(N3CCc4c(nc(OC[C@@]56CCCN5C[C@H](F)C6)nc4N4CCCn5nc(C(=O)N6C[C@@H]7C[C@H](C6)[C@H](O)C7)cc5C4)C3)c12 [Example 268]
Please tell me which of the two, I or II , has the higher reported IC50 value. In your reply, give the label of the chosen option.
II
(II: 83 nM, I: 16 nM)
